Test system: ALL-SIL;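 note: ALL cell lines in 384-well plates, five doses spanning 10,000-fold, each plate scaled between vehicle and 100 µmol/L benzalkonium chloride controls, sDSS an adapted area-under-curve metric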
Assay: selective drug sensitivity score (sDSS, relative to normal bone marrow) (sDSS (score)); higher = more potent and effective on the cell line relative to normal bone marrow cells
Conditions: 72 h
endpoint: selective drug sensitivity score
Just the number, please, no unit after it.

Use these answered entries as a reference point.
>>> reportedvalue("CC1(C)CCC(CN2CCN(c3ccc(C(=O)NS(=O)(=O)c4ccc(NCC5CCOCC5)c([N+](=O)[O-])c4)c(Oc4cnc5[nH]ccc5c4)c3)CC2)=C(c2ccc(Cl)cc2)C1 [Venetoclax] (top concentration 1000 nM)")
16.5
>>> reportedvalue("C[C@H]1O[C@@H](O[C@H]2[C@@H](O)C[C@H](O[C@H]3[C@@H](O)C[C@H](O[C@H]4CC[C@@]5(C)[C@H](CC[C@@H]6[C@@H]5C[C@@H](O)[C@]5(C)[C@@H](C7=CC(=O)OC7)CC[C@]65O)C4)O[C@@H]3C)O[C@@H]2C)C[C@H](O)[C@@H]1O [Digoxin] (top concentration 1000 nM)")
5.6

Would you kindly share the measured selective drug sensitivity score for CCC1=C[C@@H]2CN(C1)Cc1c([nH]c3ccccc13)[C@@](C(=O)OC)(c1cc3c(cc1OC)N(C)[C@H]1[C@@](O)(C(=O)OC)[C@H](OC(C)=O)[C@]4(CC)C=CCN5CC[C@]31[C@@H]54)C2 [Vinorelbine] (top concentration 10000 nM) ?
23.6

Would you kindly share the measured selective drug sensitivity score for CC(C)[C@@H](CS(=O)(=O)C(C)C)N1C(=O)[C@@](C)(CC(=O)O)C[C@H](c2cccc(Cl)c2)[C@H]1c1ccc(Cl)cc1 [AMG-232] (top concentration 10000 nM) ?
-8.14
